A set of compounds tested on jack bean urease (Canavalia ensiformis), with measured IC50:
Write the value in µM as a bare number.

Exam item: Report the value of IC50 obtained on jack bean urease (Canavalia ensiformis) for [O-][S+](NOCc1ccccc1)c1ccccc1 (stereo not shown) .
Sequence (P07374 whole entry): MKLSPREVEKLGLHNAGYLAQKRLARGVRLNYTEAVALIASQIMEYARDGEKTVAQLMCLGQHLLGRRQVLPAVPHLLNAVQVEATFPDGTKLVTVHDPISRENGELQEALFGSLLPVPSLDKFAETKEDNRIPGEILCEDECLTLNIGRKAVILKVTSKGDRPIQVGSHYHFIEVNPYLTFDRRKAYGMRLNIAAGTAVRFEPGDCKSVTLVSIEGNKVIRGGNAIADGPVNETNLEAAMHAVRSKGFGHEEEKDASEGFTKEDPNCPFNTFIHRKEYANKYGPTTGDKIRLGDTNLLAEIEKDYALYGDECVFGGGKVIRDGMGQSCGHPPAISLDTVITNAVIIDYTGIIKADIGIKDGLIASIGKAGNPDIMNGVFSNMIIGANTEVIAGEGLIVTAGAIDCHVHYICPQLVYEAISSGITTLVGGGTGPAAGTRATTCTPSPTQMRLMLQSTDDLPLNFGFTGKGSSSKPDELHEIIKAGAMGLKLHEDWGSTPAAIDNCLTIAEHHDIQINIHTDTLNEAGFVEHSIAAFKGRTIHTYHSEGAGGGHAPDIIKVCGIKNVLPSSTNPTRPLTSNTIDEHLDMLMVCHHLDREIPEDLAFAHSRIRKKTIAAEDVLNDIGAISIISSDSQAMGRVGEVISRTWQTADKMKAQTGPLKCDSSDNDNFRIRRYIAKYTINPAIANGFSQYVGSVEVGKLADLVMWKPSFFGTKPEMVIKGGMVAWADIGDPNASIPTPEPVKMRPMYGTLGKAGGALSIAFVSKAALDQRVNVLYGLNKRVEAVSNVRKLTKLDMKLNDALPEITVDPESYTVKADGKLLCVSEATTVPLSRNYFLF
Marked response: 6.15

Exam item: State the measured IC50 (jack bean urease (Canavalia ensiformis)) of NOC(=O)c1ccccc1
Marked response: 155

Exam item: State IC50 on jack bean urease (Canavalia ensiformis). Entry: NC(N)=S [Thiourea, reference compound]
Marked response: 144

Exam item: Retrieve IC50 on jack bean urease (Canavalia ensiformis); query O=S(=O)(NOCc1ccccc1)c1ccccc1
Marked response: 100
